# TGI per record follows
Tested on: SW-620 colon
PROTOCOL: NCI tumour cell line growth inhibition, 48 h

Illustrative cases are given below, each with its answer.
COMPOUND | TGI
CCc1cc2c(c3[nH]ccc13)[C@@H](C)C[C@H]2C | 41 µM
O=C1CCC(=O)C(C(=O)CCC(=O)Nc2ccc(Cl)cc2)C1 (stereo not given) | > 100 µM
Cc1nc2cccc(F)c2c(=O)n1-c1nnc(C2CC2)s1 | > 10 µM
O=C1CCc2c(sc3ncnc(Nc4cccc(Br)c4)c23)C1 | 11.6 µM
Oc1cccc(-c2cn3cc(Cl)ccc3n2)c1 | > 100 µM
Clc1ccc2c(NCCNc3nc(Cl)nc4ccccc34)ccnc2c1 | 0.636 µM
CC(=O)OC1COC(n2c(N)c(C#N)c(-c3ccccc3)c(C#N)c2=S)C(OC(C)=O)C1OC(C)=O (stereo not given) | > 100 µM
COC(=O)C12CC(NC(=O)c3csc([C@@H](C[C@H](C(C)C)N(C)C(=O)[C@@H](NC(=O)[C@H]4CCCCN4C)C(C)C)OC(C)=O)n3)(C1)C2 | > 33.3 µM
NS(=O)(=O)c1ccc(N=Nc2cc3ccccc3c(C(=O)O)c2O)cc1 | > 100 µM

Task: Given COc1cc2c3c4[n+](cc2c(OC)c1OC)CCC4CCC3 (stereo not given) , respond with its TGI.
Output: > 100 µM

----------
System: TK-10 renal
PROTOCOL: NCI tumour cell line growth inhibition, 48 h
# GI50 per record follows

COMPOUND | GI50
NC(=S)c1cn(C2OC(CO)C(O)C2O)c2ncnc(N)c12 (centres undefined) | 0.185 µM
O=C(CN1CCN(c2cc3c(cc2F)c(=O)c(C(=O)O)cn3C2CC2)CC1)Nc1ccc(C(=O)/C=C/c2ccccc2)cc1 | 4.19 µM
CCN(CC)Cc1cc(Nc2c3ccc(Cl)cc3nc3c(C)cccc23)ccc1O | 2.69 µM
Cn1cc(C2=C(c3cn(C)c4cc(Cl)ccc34)C(=O)NC2=O)c2ccccc21 | 3.81 µM
O=C(Nc1ccc(I)cc1F)c1cc(F)ccc1O | 1.59 µM

Task: GET GI50 | system: TK-10 renal | item: COc1ccc2c(c1)/C(=N/OC(C)=O)c1c-2c(Nc2ccc(/C(C)=N/OC(C)=O)cc2)nc2ccccc12
Output: > 100 µM

Task: GET GI50 | system: TK-10 renal | item: CCn1c(-c2nonc2N)nc2c(C#CC(C)(C)O)ncc(OCC3CCNCC3)c21
Output: 8.28 µM

Task: GET GI50 | system: TK-10 renal | item: COC(=O)C1=C(C)NC(C)=C(C(=O)OC)C1c1ccccc1[N+](=O)[O-]
Output: > 100 µM

Task: GET GI50 | system: TK-10 renal | item: COC(=O)CCCCCCCCC(=O)c1c(C)[nH]c(/C=C2\N=C(c3ccc[nH]3)C=C2OC)c1C
Output: > 100 µM

----------
System: A549 NSCLC
PROTOCOL: NCI tumour cell line growth inhibition, 48 h
# GI50 per record follows

Illustrative cases are given below, each with its answer.
SMILES_REPR | RECORDED_VALUE
Cc1c(-c2ccnc(N)n2)c2c(n1-c1ccccc1)C(=O)c1ccccc1C2=O | 36100 nM
C=C1C(=O)O[C@H]2[C@H]1CC/C(COC(=O)c1ccc(Br)cc1)=C\CC[C@@]1(C)O[C@@H]21 | 1960 nM
C[C@@H]1CC[C@H]2C(CN(C)CC3=C(C(F)(F)F)O[C@@H]4O[C@@]5(C)CC[C@H]6[C@H](C)CC[C@@H]3[C@@]46OO5)=C(C(F)(F)F)O[C@@H]3O[C@@]4(C)CC[C@@H]1[C@]32OO4 | 1580 nM
c1ccc2c(Nc3ccc4c(c3)OCO4)c3ccoc3nc2c1 | 6960 nM
O=C(N/N=C\c1cc(Br)cc(Br)c1O)N/N=C/c1cc(Br)cc(Br)c1O | 3740 nM

Task: Given Cn1ccnc1C(=O)/C=C/c1ccc(CC(=O)Nc2cc(F)c(F)c(F)c2)cc1 , respond with its GI50.
Output: 1570 nM

Task: Given COc1cc2cc(Oc3ccc(NC(=O)Nc4cc(C(F)(F)F)cc(C(F)(F)F)c4)cc3)c(C)nc2cc1OCCN1CCCCC1 , respond with its GI50.
Output: 1800 nM

Task: Given CCN(Cc1cccc(C)c1)c1ccc(CO)c(Cl)c1 , respond with its GI50.
Output: 4770 nM

----------
System: SNB-75 CNS
PROTOCOL: NCI tumour cell line growth inhibition, 48 h
# TGI per record follows
Report only the number, with the unit µM understood.

MOLECULE | TARGET_SYSTEM | TGI [µM]
CC(C)(CO)Nc1c(O)c2c(c(O)c1Cl)C(=O)C=CC2=O | SNB-75 CNS | 2.6

Task: Given Clc1ccc(C2=NNC(c3cccc(Cl)c3)C2)cc1 (stereo not given) , respond with its TGI.
Output: 96.5

Task: Given COc1ccc2c(c1)/C(=N/OC(C)=O)c1c-2c(Nc2ccc(/C(C)=N/OC(C)=O)cc2)nc2ccccc12 , respond with its TGI.
Output: 75.9

----------
Test system: OVCAR-3 ovarian
PROTOCOL: NCI tumour cell line growth inhibition, 48 h; in the data active = GI50 below about 0.43 µM; inactive = the rest
*1 amine or outer side, *2 acyl side, *3 side chain or, on linkers, in order; H or OH if unused. Where a SMILES comes first, the peptide text is derived from it. [ ]: non-standard residue; d: D form. The star is where a group is joined. X12 = NCCCCC(N[*:1])C(=O)CN1CCCC1C(=O)[*:2]; Pentadecanoyl = CCCCCCCCCCCCCCC(=O)*
A correct response names exactly one class from active, inactive

Below are worked cases with known answers.
MOLECULE | TARGET_SYSTEM | CLASS
CN(C)CC1CCCCCCCCCCC1=O (stereo unspecified) | OVCAR-3 ovarian | inactive
CCCCCCCCCCCCCCC(=O)NC(CCCCN)C(=O)CN1CCCC1C(=O)NCC(=O)NC(Cc1ccccc1)C(=O)N1CCCC1C(=O)NC(CO)C(=O)NC(Cc1ccc(O)cc1)C(=O)NC(CCCCN)C(=O)NC(CC(C)C)C(=O)NC(CCCN=C(N)N)C(=O)N1CCCC1C(=O)NCC(N)=O (stereo unspecified) (Pentadecanoyl-[X12]GFPSYKLRPG-NH2; configuration not given here) | OVCAR-3 ovarian | inactive
N#CCCCCCn1c2ccccc2c2c3c(c4c5ccccc5[nH]c4c21)C(=O)N(O)C3=O | OVCAR-3 ovarian | inactive
C=C1C(=O)O[C@H]2[C@H]1CC/C(COC(=O)c1ccc(Br)cc1)=C\CC[C@@]1(C)O[C@@H]21 | OVCAR-3 ovarian | inactive

Task: // param item: O=C(CN1CCN(c2cc3c(cc2F)c(=O)c(C(=O)O)cn3C2CC2)CC1)Nc1ccc(C(=O)/C=C/c2ccccc2)cc1 ; yields the recorded call
Output: inactive

----------
Tested on: MCF7 breast
PROTOCOL: NCI tumour cell line growth inhibition, 48 h; in the data active = GI50 below about 0.43 µM; inactive = the rest
A correct response names exactly one class from active, inactive

COMPOUND | CLASS
O=C(Nc1ccc(I)cc1F)c1cc(F)ccc1O | inactive

Task: // param item: CCN(Cc1cccc(C)c1)c1ccc(CO)c(Cl)c1 ; yields the recorded call
Output: active

Task: // param item: O=C(Nc1ccc(Oc2cccc(Cl)c2)c(Cl)c1)c1cccnc1 ; yields the recorded call
Output: inactive

Task: // param item: CCN(CC)Cc1cc(Nc2c3ccc(Cl)cc3nc3c(C)cccc23)ccc1O ; yields the recorded call
Output: inactive

Task: // param item: CCN(CC)c1ccc(/C=C2/NC(=O)NC2=O)cc1 ; yields the recorded call
Output: inactive

----------
# TGI per record follows
System: OVCAR-5 ovarian
PROTOCOL: NCI tumour cell line growth inhibition, 48 h

Illustrative cases are given below, each with its answer.
COMPOUND | RECORDED_VALUE
COc1ccc2nc(NC(=O)C(=O)C(C#N)c3ccc(CC#N)cc3)sc2c1 (stereo unspecified) | > 100 µM
CC1C/C(=C\c2ccc(O)c(O)c2)C(=O)/C(=C/c2ccc(O)c(O)c2)C1 (stereo unspecified) | 32.8 µM
COc1ccc(Cn2nc(OCc3ccccc3)c3cc([N+](=O)[O-])ccc32)cc1 | > 100 µM
C=CCN1C(=O)C/C(=C2/CCC(=O)N2CC=C)C1=O | > 100 µM
O=C(Nc1ccc(I)cc1F)c1cc(F)ccc1O | > 100 µM

Let us examine a further case.
Task: Given c1ccc(-c2nn(-c3ccccc3)[n+](-c3ccccc3-c3ccccc3)n2)cc1 , respond with its TGI.
Output: > 100 µM

----------
Test system: COLO 205 colon
PROTOCOL: NCI tumour cell line growth inhibition, 48 h
ASSAY_ENDPOINT: TGI

Illustrative cases are given below, each with its answer.
COMPOUND | TGI
O=C(CSCC(=O)N/N=C\c1cccc(Br)c1)N/N=C\c1cccc(Br)c1 | > 100 µM
Cn1cc(C2=C(c3cn(C)c4cc(Cl)ccc34)C(=O)NC2=O)c2ccccc21 | 0.18 µM
COC(=O)CCCCCCCCC(=O)c1c(C)[nH]c(/C=C2\N=C(c3ccc[nH]3)C=C2OC)c1C | > 100 µM
CSC(=N/N=C(\C)c1ccc(S(=O)(=O)N(C)c2ccccc2)cc1)SC | > 100 µM
O=C1/C(=C/c2ccccc2)CN(C(=O)Oc2ccccc2)C/C1=C\c1ccccc1 | > 100 µM
Cc1cccc2c1C(=O)OC2(c1cccc2ccccc12)c1cccc2ccccc12 | > 100 µM

Task: Given Oc1[nH]c2ccccc2c1N=NC(=S)NCc1ccccn1 , respond with its TGI.
Output: 13.6 µM

Task: Given O=C(N/N=C\c1cc(Br)cc(Br)c1O)N/N=C/c1cc(Br)cc(Br)c1O , respond with its TGI.
Output: 14.6 µM

Task: Given COc1cc2ccc(C(=O)O)cc2cc1OC , respond with its TGI.
Output: > 100 µM

Task: Given S=C1NC2=C(CCOc3c2ccc2ccccc32)C(c2ccc(Cl)cc2)N1 (stereo not given) , respond with its TGI.
Output: > 100 µM
